System: α7 integrin promoter
Test: muscle cell-based assay: α7βgal+/− myoblasts/myotubes, LacZ reporter, β-galactosidase cleavage of FDG
Set-up: species or system mouse
Settings: Myotubes; compound at 1 uM
MEASURED_ATTRIBUTE: Results in a α7+/− β-galactosidase assay, Myotubes, 1 uM

INSERT INTO measurements (compound, reported) VALUES
  ('Cc1ccsc1-c1nnc(S)n1C1CCCCC1 [drawing 413]', 0.09759),
  ('CCOc1ccccc1Nc1cc2n(c(=O)n1)CCc1cc(OC)c(OC)cc1-2 [drawing 438]', 0.1295),
  ('CN1CCN(c2ccccc2/C=C2\C(=O)Nc3ccccc32)CC1 [drawing 463]', 0.02095),
  ('Cc1ccccc1/C=C1\C(=O)Nc2ccc(F)cc21 [drawing 456]', '−0.01895'),
  ('COc1ccccc1C(=O)OCc1ccc2sc(C)nc2c1 [drawing 378]', 0.06534),
  ('O=C(CCc1ccccc1)c1nnc(-c2ccccc2)o1 [drawing 367]', 0.1296),
  ('CCCCNc1nnc(Cc2ccc(Cl)cc2)c(O)n1 [drawing 335]', 0.1668),
  ('O=C1Nc2ccccc2/C1=C/c1ccccc1Cl [drawing 321]', 0.1803),
  ('Cc1cccc(Cn2cnc3c(nnn3Cc3ccc(Cl)cc3)c2=O)c1 [drawing 450]', '−0.01328'),
  ('O=C(N/N=C/c1c[nH]c2ccccc12)c1cc(Cl)ccc1O [drawing 409]', '−0.09286'),
  ('O=C1Nc2ccccc2/C1=C\c1cccn1-c1ccc(OC(F)(F)F)cc1 [drawing 445]', 0.06007),
  ('CCOc1ccc2nc(Cl)sc2c1 [drawing 370]', 0.001963),
  ('COc1cccc(C(=O)COc2ccc3ccc(=O)oc3c2)c1 [drawing 363]', 0.2317),
  ('CN(/C(=N/S(=O)(=O)c1cccs1)c1ccccc1)c1ccccc1 [drawing 381]', 0.1809),
  ('Cc1ccc2c(c1)/C(=C/c1ccc(F)cc1)C(=O)N2 [drawing 317]', 0.07633),
  ('COc1ccc(OC)c(S(=O)(=O)Nc2c(NC3CCCCC3)c3ccccc3oc2=O)c1 [drawing 448]', '−0.0336'),
  ('CC(C)Oc1cccc(C(=O)Nc2ccc(CN3CCOCC3)cc2)c1 [drawing 355]', '−0.1398'),
  ('COc1ccc(NC(=O)C2(N(C(=O)Cn3nnnc3N)c3ccc(OC)cc3)CCCCC2)cc1 [drawing 324]', 0.1378),
  ('CCCC1C(c2cc(OC)c(OC)c(OC)c2)=Nc2c1c(=O)[nH]c(=O)n2Cc1ccccc1 (centres unmarked) [drawing 469]', '−0.1313'),
  ('CCCCN(CC)Cc1ccc(C/N=C(\S)Nc2ccccc2F)o1 [drawing 313]', 0.01354);

* * *

Tested on: α7 integrin promoter
Assay: muscle cell-based assay: α7βgal+/− myoblasts/myotubes, LacZ reporter, β-galactosidase cleavage of FDG
Parameters: species or system mouse
Conditions: Table 12; key not given
Procedure: An α7 integrin null mouse was produced in which exon 1 of the gene encoding the α7 integrin was replaced by the LacZ reporter. […] A primary myoblast cell line (designated α7βgal^+/−) isolated from 10 day old α7^+/− pups were analyzed for the ability of β-galactosidase to report α7 integrin expression. α7βgal^+/− myoblasts were differentiated and subjected to X-gal staining and western analysis (FIGS. 1A and 1B). […]
MEASURED_ATTRIBUTE: Fit Curve Class

INSERT INTO results (compound, reported) VALUES
  ('COc1cc(/C=C/CN2CCN(Cc3ccc(C)o3)C(CCO)C2)ccc1O (stereo not drawn)', 2.1),
  ('Cc1cc(OCC(=O)NC(C)C)ccc1Cl', 1.1),
  ('CN(C)c1ccnc2sc(C(N)=O)c(N)c12', 2.2),
  ('COC(=O)c1ccccc1NC(=O)c1cc[n+]([O-])cc1', 2.1),
  ('CN(Cc1c(C(=O)N/N=C/c2cccc(F)c2)nnn1-c1nonc1N)c1ccccc1', 2.2),
  ('O=C(COC(=O)Cn1cnc2ccccc21)Nc1cccc([N+](=O)[O-])c1', 2.1),
  ('COc1ccccc1CNS(=O)(=O)c1ccc(Cl)s1', 2.1),
  ('Cc1ccc(CNc2ncnc(N)c2[N+](=O)[O-])cc1', 2.1),
  ('COc1ccc(S(=O)(=O)N(NC2=NS(=O)(=O)c3ccccc32)C(=O)C(C)C)cc1', 1.2);
